Sourced from ChEMBL document CHEMBL5329164

assay: Apparent permeability across apical to basal side in MDCK-II cells at 10 uM measured for 120 mins by LC-MS/MS analysis; format: ADME, cell-based, Canis lupus familiaris; settings: dog
Papp A→B at 2 h, 10 µM values by entry

Examples from the recorded data:
Compound	Papp A→B at 2 h, 10 µM
COCCc1ccc(OCC(O)CNC(C)C)cc1 (centres undefined)	210 nm/s
Nc1ncnc2c1c(-c1ccc(Oc3ccccc3)cc1)nn2[C@@H]1CCCN(C(=O)c2ccc(CNc3ccc4c(c3)C(=O)N(C3CCC(=O)NC3=O)C4=O)cc2)C1 (some centres undefined)	0.16 nm/s

Return reported Papp A→B at 2 h, 10 µM; argument: Nc1ncnc2c1c(-c1ccc(Oc3ccccc3)cc1)nn2[C@@H]1CCCN(C(=O)Cc2ccc(Nc3ccc4c(c3)CN(C3CCC(=O)NC3=O)C4=O)cc2)C1 (some centres undefined) 0.01 nm/s

Return reported Papp A→B at 2 h, 10 µM; argument: Nc1ncnc2c1c(-c1ccc(Oc3ccccc3)cc1)nn2C1CCN(C(=O)Cc2ccc(Nc3ccc4c(c3)CN(C3CCC(=O)NC3=O)C4=O)cc2)CC1 (centres undefined) 0.03 nm/s
